Just for reference, ChEMBL document CHEMBL1287657 is where these values come from.

molecular target: UniProtKB P11388; assay: Inhibition of human topoisomerase 2-mediated relaxation of supercoiled PUC19 DNA at 20 to 50 uM uM after 20 mins using ethidium bromide staining by agarose gel electrophoresis
Sequence (P11388 whole entry): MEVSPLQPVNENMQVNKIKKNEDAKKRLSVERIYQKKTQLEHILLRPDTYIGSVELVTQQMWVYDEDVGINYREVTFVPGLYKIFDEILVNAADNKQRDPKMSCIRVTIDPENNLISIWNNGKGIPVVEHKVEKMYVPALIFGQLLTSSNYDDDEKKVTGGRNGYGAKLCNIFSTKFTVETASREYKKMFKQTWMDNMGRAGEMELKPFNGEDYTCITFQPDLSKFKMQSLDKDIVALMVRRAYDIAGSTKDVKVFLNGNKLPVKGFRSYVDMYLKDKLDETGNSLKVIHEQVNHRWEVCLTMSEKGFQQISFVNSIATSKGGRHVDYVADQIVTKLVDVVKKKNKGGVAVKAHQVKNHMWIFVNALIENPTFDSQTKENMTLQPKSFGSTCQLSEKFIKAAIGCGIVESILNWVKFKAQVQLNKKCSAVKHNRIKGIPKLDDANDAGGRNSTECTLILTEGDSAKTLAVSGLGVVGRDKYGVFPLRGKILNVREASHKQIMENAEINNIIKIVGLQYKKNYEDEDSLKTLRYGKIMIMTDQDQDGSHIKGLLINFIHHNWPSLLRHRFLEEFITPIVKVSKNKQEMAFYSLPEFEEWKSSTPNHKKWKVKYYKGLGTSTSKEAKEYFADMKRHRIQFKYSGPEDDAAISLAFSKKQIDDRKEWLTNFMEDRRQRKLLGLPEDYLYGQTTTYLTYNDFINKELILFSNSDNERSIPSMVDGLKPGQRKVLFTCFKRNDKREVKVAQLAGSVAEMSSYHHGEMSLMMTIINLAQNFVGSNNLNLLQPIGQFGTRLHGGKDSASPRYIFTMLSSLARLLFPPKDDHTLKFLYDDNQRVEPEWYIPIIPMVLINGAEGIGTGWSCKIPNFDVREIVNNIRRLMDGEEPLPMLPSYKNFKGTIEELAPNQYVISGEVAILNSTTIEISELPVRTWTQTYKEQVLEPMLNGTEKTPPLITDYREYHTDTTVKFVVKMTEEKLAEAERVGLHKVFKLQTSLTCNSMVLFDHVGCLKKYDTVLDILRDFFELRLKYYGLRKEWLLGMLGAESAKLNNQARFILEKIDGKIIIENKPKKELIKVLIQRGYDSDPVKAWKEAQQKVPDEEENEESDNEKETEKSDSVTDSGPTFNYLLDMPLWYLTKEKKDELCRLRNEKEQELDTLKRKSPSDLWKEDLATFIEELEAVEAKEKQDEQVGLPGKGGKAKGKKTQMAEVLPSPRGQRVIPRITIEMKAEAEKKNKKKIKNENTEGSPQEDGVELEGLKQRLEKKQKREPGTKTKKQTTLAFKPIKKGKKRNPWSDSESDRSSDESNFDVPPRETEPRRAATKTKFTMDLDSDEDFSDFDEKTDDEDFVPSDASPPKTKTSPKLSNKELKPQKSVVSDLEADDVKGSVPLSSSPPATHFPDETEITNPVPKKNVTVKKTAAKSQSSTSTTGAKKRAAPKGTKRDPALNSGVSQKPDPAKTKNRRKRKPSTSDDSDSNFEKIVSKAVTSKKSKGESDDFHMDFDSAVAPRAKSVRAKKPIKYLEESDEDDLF
Activity calls are given as the source filed them. No cut-off for these calls is given here.
// one of active, inactive, no free text

Kindly provide the recorded test outcome for the following compound: COc1ccc(-c2c3c(cc4c2[nH]c2ccccc24)COC3=O)cc1OC
inactive

What outcome does the record of this test show for COc1ccc(-c2c3c(cc4c2[nH]c2ccccc24)COC3=O)cc1 ?
inactive

Assay result, entry COc1cc(-c2c3c(cc4c2[nH]c2ccccc24)COC3=O)cc(OC)c1OC — outcome?
inactive

Outcome logged for COc1cc([C@@H]2c3cc4c(cc3[C@@H](O[C@@H]3O[C@@H]5CO[C@@H](C)O[C@H]5[C@H](O)[C@H]3O)[C@H]3COC(=O)[C@H]23)OCO4)cc(OC)c1O in this assay:
active

Call for entry COc1cc(-c2c3c(cc4c2[nH]c2ccccc24)COC3=O)cc(O)c1O :
active

Which outcome was entered for the compound O=C1OCc2cc3c([nH]c4ccccc43)c(-c3ccc4c(c3)OCO4)c21 in this test?
inactive

For this compound, state the assay outcome: COc1cc(OC)cc(-c2c3c(cc4c2[nH]c2ccccc24)COC3=O)c1
inactive
